- Tested on: PPARg:RXRa 90nM:30nM, anti-RXR (NR concentration 90 nM, RXRa partner concentration 30 nM)
- assay: PBM binding z-score (relative to random genomic background probes); higher = stronger binding; sequences stand for … in GC…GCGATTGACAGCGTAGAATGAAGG
endpoint-label: PBM binding z-score

The following sequences have reported results that may help.
[
  {
    "sequence-chain": "CTAACTAGGTCAAGGACAGTGAATCTCCGCACGC",
    "endpoint-label": "PBM binding z-score",
    "value": 6.92
  },
  {
    "sequence-chain": "TCGCGGAGGACACGAAAGGTCAGAGCTCGACATC",
    "endpoint-label": "PBM binding z-score",
    "value": 1.95
  },
  {
    "sequence-chain": "TCATATTGGTAAAGGTGAAAGTCGAACGATATGA",
    "endpoint-label": "PBM binding z-score",
    "value": 3.9
  },
  {
    "sequence-chain": "GCTGACGGGTCAAAGGTTATAGCATGAATAGAAT",
    "endpoint-label": "PBM binding z-score",
    "value": 8.55
  },
  {
    "sequence-chain": "TCTCGGATGACACGAAGGTCAGAGCTTTCCAGAG",
    "endpoint-label": "PBM binding z-score",
    "value": 2.56
  }
]

Dear colleague, could you send me PBM binding z-score for each of the items below? Thanks.
1. TAGCGTAGGTCATGGGCCAGTATACCACGCGAAC
2. CCGAGTAGGTTATGGGGCAGTCAGGCAACGGTGA
3. GGAACGAGGGCATTCGAGTTGATAGAATGGCGAT
4. CCTCGGAGGACAGACGGTCAGAGCTGTCCGCTTT
5. TCGAGTAGGTGAGTCGGGGCATTCAGCCAACATA
6. TAGCATAGGTCATTGGGCCAGTATAGTACGCATC
7. CGTCCAAGGTCAGAGAGGTCAGTCAATGCCGAGT
8. AATACAGAGTCATCGTAGGCCAGAGTACGCACAG

1. 2.88
2. 3.3
3. 0.303
4. -0.797
5. 0.803
6. 3.7
7. 2.63
8. 0.175

* * *

Please go through the items and note down their PBM binding z-score.
- Test system: RARg:RXRa (NR concentration 270 nM, RXRa partner concentration 90 nM)
- assay: PBM binding z-score (relative to random genomic background probes); higher = stronger binding; sequences stand for … in GC…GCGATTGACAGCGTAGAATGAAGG
Answers are plain numbers.

# annotated cases, reported PBM binding z-score shown
[
  {
    "sequence-chain": "TCATATAGGTAATATAGGTGAAAGTCGGCATCTA",
    "PBM binding z-score": 0.454
  },
  {
    "sequence-chain": "CGTCCAAGGTTAAAGGTCAGTGAAGAGATGACGG",
    "PBM binding z-score": 6.38
  },
  {
    "sequence-chain": "CCTTACGGGTCCAGGTTATAGCACGGGTGGTACG",
    "PBM binding z-score": -0.0416
  }
]

I'm hoping you can list PBM binding z-score for every sequence here, please.
1. CCTCGGAGGACAACAGGAGGTCAGCGCTGCCAGA
2. ACAAGCAGGCCAAGGGTCACTCAAGATTAGTCCG
3. CCGACTGGGCCATAAGGTTACCATAAGCCAGCCC
4. CGTCCAAGGTAAGCAGGTCAGTGAAAGCGACGTG
5. ATCTCTAGGTAAAGTTCAATGAAAGATCGATAGA

[4.12, 4.28, 0.915, 1.08, 2.7]

* * *

- System: PPARa:RXRa (NR concentration 270 nM, RXRa partner concentration 90 nM)
- assay: PBM binding z-score (relative to random genomic background probes); higher = stronger binding; sequences stand for … in GC…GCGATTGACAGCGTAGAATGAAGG
Classify by PBM binding z-score. Ranges: band 1 (below 0.1), band 2 (0.1 to below 1), band 3 (1 or more)

Examples from the recorded data:
[
  {
    "sequence-chain": "CCGACTGGGGCAAAGTTACCATAACGCACAGCCA",
    "tested-system": "PPARa:RXRa (NR concentration 270 nM, RXRa partner concentration 90 nM)",
    "group": "band 3"
  },
  {
    "sequence-chain": "CCTATTAGTTGACCATAACGGCAACCGAAGCTCG",
    "tested-system": "PPARa:RXRa (NR concentration 270 nM, RXRa partner concentration 90 nM)",
    "group": "band 2"
  },
  {
    "sequence-chain": "AGAACGAGGGGAATGAGTTGATAGCACGGGTGGC",
    "tested-system": "PPARa:RXRa (NR concentration 270 nM, RXRa partner concentration 90 nM)",
    "group": "band 2"
  },
  {
    "sequence-chain": "ACAGACAGGTGAGTGAAGGTAACTCACCTGGACG",
    "tested-system": "PPARa:RXRa (NR concentration 270 nM, RXRa partner concentration 90 nM)",
    "group": "band 2"
  },
  {
    "sequence-chain": "ACAGACAGGTGAGTGAAGGAAACTCAGCTGGACG",
    "tested-system": "PPARa:RXRa (NR concentration 270 nM, RXRa partner concentration 90 nM)",
    "group": "band 1"
  }
]

State the band of CCTTACGGGTCATGAGGTTATAGCACGACGAGCG
band 3

Each sequence maps to one class by PBM binding z-score. Which class for CGAACTAGATCATTGACAGGACAGTGAATAGTAA ?
band 1

* * *

- System: RARg:RXRa (NR concentration 270 nM, RXRa partner concentration 90 nM)
- assay: PBM binding z-score (relative to random genomic background probes); higher = stronger binding; sequences stand for … in GC…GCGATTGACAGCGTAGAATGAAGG
# binarize PBM binding z-score: threshold 2 inclusive, high side 1.0, low side 0.0

See these solved cases before continuing.
[
  {
    "sequence-chain": "TCAAATAGGTAAAAGGTGAAAGTCGGTGTGGTAA",
    "group": 0.0
  },
  {
    "sequence-chain": "CAAACTAGGTCAAGGTAAAAGTCGGTTTGTGCCA",
    "group": 1.0
  },
  {
    "sequence-chain": "TAGCCTAGGGCATGCGGGCCAGTATAGTGTCGGC",
    "group": 0.0
  }
]

Hello, I need to know if CTTCCAAGGTCAATGCTAGGTCAGTGAAAGCATT has measured PBM binding z-score not below 2. Thanks!
1.0

For this sequence, is measured PBM binding z-score 2 or higher? ACAGACAGGTGATGAAGTTAACTCAGGCTATCAT
0.0

Is reported PBM binding z-score greater than or equal to 2 here: AGTCAAAGTTCACTAGTTAACGTAAGATTCAGCT
1.0

Determine whether measured PBM binding z-score meets or exceeds 2 for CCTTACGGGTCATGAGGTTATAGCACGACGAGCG
1.0

Evaluate CCGACTGGGGCCGAAAGGTTACCATACCATCCGG : PBM binding z-score at minimum 2?
1.0

Please tell me: is the sequence CGTCAAAGTTCAAGGTAACGTGACAGAAAGCAGC at or over 2 in terms of PBM binding z-score?
1.0

Does PBM binding z-score meet or surpass 2 for TCTGCTACGTCAGTTGGTCAGCTAACGAGCTGCC ?
0.0

* * *

- System: PPARg:RXRa (NR concentration 180 nM, RXRa partner concentration 90 nM)
- assay: PBM binding z-score (relative to random genomic background probes); higher = stronger binding; sequences stand for … in GC…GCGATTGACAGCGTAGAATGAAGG
Hi, to clarify the labels: True covers PBM binding z-score from 3 upward, False covers anything below 3.

Example entries and their recorded answers appear below.
[
  {
    "sequence-chain": "AGTCATAGTTCATCTAGGTAACGTAAGATATGCT",
    "group": "False"
  },
  {
    "sequence-chain": "GCTCGGAGGTCAAGGTCAGAGCTTTGTCCGTAGA",
    "group": "True"
  },
  {
    "sequence-chain": "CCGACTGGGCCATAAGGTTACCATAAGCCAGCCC",
    "group": "False"
  },
  {
    "sequence-chain": "GGAACGAGAGCAAAGTTGATAGCATCTGTCGACG",
    "group": "True"
  },
  {
    "sequence-chain": "CAAACTAGGTCAAAGGTCAAAGTCGAGCCAACCA",
    "group": "True"
  }
]

// switching to the query sequence
hey, is PBM binding z-score for this one >= 3? ACTACCAGGCCAAGTTTGGGTCACTCAAACAAAG
False

* * *

- Test system: RARb:RXRa (NR concentration 270 nM, RXRa partner concentration 90 nM)
- assay: PBM binding z-score (relative to random genomic background probes); higher = stronger binding; sequences stand for … in GC…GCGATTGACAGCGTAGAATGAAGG
endpoint-label: PBM binding z-score

Study these solved cases before continuing.
[
  {
    "sequence-chain": "CCTAATGGGCCAAAAAGGTCATTGATGCCGATAA",
    "PBM binding z-score": 3.99
  },
  {
    "sequence-chain": "GGAACGAGGGGAAGTTGATAGCAGAGTTTGATGG",
    "PBM binding z-score": 0.243
  },
  {
    "sequence-chain": "CCAGACAGGTGAAAGGTAACTCGGTCTGGTACGC",
    "PBM binding z-score": 1.2
  },
  {
    "sequence-chain": "ACTAGCAGGCCAAGGGTCACTCAGGATTAGTCCG",
    "PBM binding z-score": 3.59
  },
  {
    "sequence-chain": "GCTAGCATGCCATTTGGGTCACTCAATGACGGGC",
    "PBM binding z-score": 1
  },
  {
    "sequence-chain": "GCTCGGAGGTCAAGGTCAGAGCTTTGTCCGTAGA",
    "PBM binding z-score": 5.37
  }
]

Working through the 5 sequences below one at a time, give PBM binding z-score for each.
1. AATACAGGGTCACTAGGCCAGGGTAGGTACGAAT
2. ACTAGCAGGCCAAGTTTGGGTAACTCAAACAAAG
3. GCTAGTTGGTCAGTTAAAGGTCACACACCGGTCG
4. AGTCAAAGTTCACTAGGTCACGTAAGATTCAGCT
5. CCTACTGGGCCATTCAGAGGTCATAGATCATATG

1. 4.23
2. 0.143
3. 4.13
4. 5.27
5. 2.97

For every item in the list below, what is its measured PBM binding z-score?
1. GCGACTGGGGCATCTGCAGGTTACCATAACTTAA
2. CGAGCGAGGGCATGAGTTGATAGCAAATGCCGAT
3. CCTGCTAGGTCAATGGTCGGCTAAAGCAGCTCGC
4. TTACCTAGGTGAAGGTCGTTGATCCCTCTGTAGA
5. ATCTCTAGGTAAAGTTCAGTGATAGATCGATAGA
6. CGAACTAGGTCAGCACAGGACAGTGAAGGATGAT
7. TCTTGTAGATCAAGCAGGTTATGAAAGCCTGAGT
8. ACTATTTGTTGAGACGAGGGCAACCGATAGGTTG

[0.859, 2.03, 3.73, 1.45, 2.71, 3.65, 0.176, 1.07]
